meta.source: PubChem BioAssay (NCI)

Tested on: SF-268 CNS
assayDetails: NCI-60 one-dose screen, 48 h (100 = growth as untreated, 0 = no growth, -100 = all killed)
runConditions: 10 µM unless noted
Compounds without any hit were thinned out: in the full panel of roughly 83,000, 20% have a hit.
// growth lookup, one value per entry

>  <smilesCode>
COc1cc(-c2nn(C)nc2-c2cc3ccccc3s2)cc(OC)c1OC

>  <unitsOfMeasure>
%

>  <growth>
39.8

$$$$
>  <smilesCode>
COc1cc2c(cc1-c1c(C)noc1C)ncc1nc(C3CCC(F)(F)CC3)n([C@H](C)COC(F)F)c12

>  <unitsOfMeasure>
%

>  <growth>
67.4

$$$$
>  <smilesCode>
CCOC(=O)c1c(C)oc2ncnc(N3CCN(C(=S)Nc4ccccc4)CC3)c12

>  <unitsOfMeasure>
%

>  <growth>
94.1

$$$$
>  <smilesCode>
C=CC(=O)Nc1cccc(-c2nc(SC)nc(Nc3ccccc3OC)c2C#N)c1

>  <unitsOfMeasure>
%

>  <growth>
53.5

$$$$
>  <smilesCode>
CC(C)(C)c1cc(/C=N\NC(=O)/C=C/C=C/c2ccc3c(c2)OCO3)c(O)c(C(C)(C)C)c1

>  <unitsOfMeasure>
%

>  <growth>
67.4

$$$$
>  <smilesCode>
N#Cc1c(N)n(CCNC(=O)c2ccccc2)c2nc3ccccc3nc12

>  <unitsOfMeasure>
%

>  <growth>
106

$$$$
>  <smilesCode>
O=C(COc1ccc(/C=C2\COc3ccccc3C2=O)cc1)Nc1nccs1

>  <unitsOfMeasure>
%

>  <growth>
92.8

$$$$
>  <smilesCode>
COc1ccc(C(=O)COc2ccc(/C=C3\Oc4ccc(OC)cc4C3=O)cc2)cc1

>  <unitsOfMeasure>
%

>  <growth>
121

$$$$
>  <smilesCode>
COc1ccc(-c2nc3ccc(-c4nc5ccc(N6CCN(c7ccncc7)CC6)cc5[nH]4)cc3[nH]2)cc1OC

>  <unitsOfMeasure>
%

>  <growth>
38.4

$$$$

====

Tested on: MOLT-4 leukemia
assayDetails: NCI-60 one-dose screen, 48 h (100 = growth as untreated, 0 = no growth, -100 = all killed)
runConditions: 10 µM unless noted
About 83,000 compounds went through this panel and 20% of them were active in at least one assay; those are over-represented in the sample as a whole.
growth listing for selected molecules.
propertyLabel: growth (%)

>  <molecule>
O=C1c2cccc3cccc(c23)C(=O)N1CCCCN1CCN(CCCCOc2ccc(-c3nc4ccc(N5CCOCC5)cc4[nH]3)cc2)CC1

>  <propertyLabel>
growth

>  <reportedMeasurement>
52.3

$$$$
>  <molecule>
CN1CCN(c2ccc(Nc3c4ccccc4nc4ccccc34)cc2)CC1

>  <propertyLabel>
growth

>  <reportedMeasurement>
97.5

$$$$
>  <molecule>
C=C1C(=O)O[C@H]2[C@H]1CC/C(COC(=O)NCCc1ccc(OC)c(OC)c1)=C\CC[C@@]1(C)O[C@@H]21

>  <propertyLabel>
growth

>  <reportedMeasurement>
43.6

$$$$
>  <molecule>
COc1ccc(-c2nc(SCC(=O)Nc3ccc(C(=O)/C=C/c4ccc(Cl)cc4)cc3)[nH]c(=O)c2C#N)cc1

>  <propertyLabel>
growth

>  <reportedMeasurement>
84.4

$$$$
>  <molecule>
C=C(C)C(=O)Nc1ccc(NC(C)C)cc1

>  <propertyLabel>
growth

>  <reportedMeasurement>
128

$$$$
>  <molecule>
COc1ccc(-c2nn(-c3ccc(Cl)cc3)cc2-c2nc3ccccc3[nH]2)cc1

>  <propertyLabel>
growth

>  <reportedMeasurement>
81.8

$$$$
>  <molecule>
O=C1C=C(OCC=C(Cl)Cl)C(=O)c2ccccc21

>  <propertyLabel>
growth

>  <reportedMeasurement>
71

$$$$
>  <molecule>
CC(C)(C)N1CCC1CN (stereo unspecified)

>  <propertyLabel>
growth

>  <reportedMeasurement>
128

$$$$
>  <molecule>
O=C(O)c1c(=O)cccc2ssc12

>  <propertyLabel>
growth

>  <reportedMeasurement>
-23.3

$$$$
>  <molecule>
Nc1nc2ccc3[nH]ncc3c2c2c1CCCC2

>  <propertyLabel>
growth

>  <reportedMeasurement>
-2.01

$$$$
>  <molecule>
CCCCCCCCCCCCC[N+](C)(C)Cc1ccccc1

>  <propertyLabel>
growth

>  <reportedMeasurement>
-10.1

$$$$

====

System: SNB-75 CNS
assayDetails: NCI-60 one-dose screen, 48 h (100 = growth as untreated, 0 = no growth, -100 = all killed)
runConditions: 10 µM unless noted
About 83,000 compounds went through this panel and 20% of them were active in at least one assay; those are over-represented in the sample as a whole.
propertyLabel: growth (%)

>  <molecule>
CC(=O)c1cc(C(=O)c2ccc3c(c2)Sc2ccccc2N3)n2ccccc12

>  <targetSystem>
SNB-75 CNS

>  <reportedMeasurement>
13.1

$$$$
>  <molecule>
CN1CCN(c2ccc3nc(-c4ccc(OCCCCN5CCN(CCCCN6C(=O)c7cccc8cccc(c78)C6=O)CC5)cc4)[nH]c3c2)CC1

>  <targetSystem>
SNB-75 CNS

>  <reportedMeasurement>
36.4

$$$$
>  <molecule>
CN1C(=O)C2(SCC(C(=O)NCc3ccccc3)N2C(=O)C2CCCCC2)c2ccccc21 (centres undefined)

>  <targetSystem>
SNB-75 CNS

>  <reportedMeasurement>
47.2

$$$$
>  <molecule>
NC1=C(Cl)C(=O)c2ccc(S(N)(=O)=O)cc2C1=O

>  <targetSystem>
SNB-75 CNS

>  <reportedMeasurement>
-100

$$$$
>  <molecule>
COc1cc2c(cc1O)CC[C@@H]1[C@@H]2CC[C@]2(C)[C@@H](OCCCN(C)C)CC[C@@H]12

>  <targetSystem>
SNB-75 CNS

>  <reportedMeasurement>
-65.4

$$$$
>  <molecule>
O=C1c2cc3c(cc2-c2c1c1cc(F)c(F)cc1c(=O)n2CCCn1ccnc1)OCO3

>  <targetSystem>
SNB-75 CNS

>  <reportedMeasurement>
24.4

$$$$
>  <molecule>
O=C1/C(=C/c2ccc(OCCCOc3ccc(Cl)cc3)cc2)N=C2SCCCN12

>  <targetSystem>
SNB-75 CNS

>  <reportedMeasurement>
84.5

$$$$
>  <molecule>
Cn1ccnc1C(=O)/C=C/c1ccc(CC(=O)Nc2ccccc2)cc1

>  <targetSystem>
SNB-75 CNS

>  <reportedMeasurement>
11.3

$$$$
>  <molecule>
N#Cc1nnn(-c2ccc(S(N)(=O)=O)cc2)c1NCC(=O)c1ccccc1

>  <targetSystem>
SNB-75 CNS

>  <reportedMeasurement>
80

$$$$

====

Tested on: DU-145 prostate
assayDetails: NCI-60 one-dose screen, 48 h
runConditions: 10 µM unless noted
The panel holds about 83,000 compounds, 20% with a hit somewhere; the sample as a whole holds those more often. The source made the active and inactive calls. The calls were made as follows: active = growth percent below 10; inactive = the rest.
Outcome codes: yes (active), no (inactive)

>  <compound>
O=C1c2cc3c(cc2-c2c1c1ccc(F)cc1c(=O)n2CCCNCCO)OCO3

>  <discreteLabel>
yes

$$$$
>  <compound>
Nc1ccc(S(=O)(=O)O)c2ccc(N=Nc3ccc(N=Nc4ccc(S(=O)(=O)O)cc4)c4ccccc34)c(O)c12

>  <discreteLabel>
no

$$$$
>  <compound>
CCOC(=O)c1cc(C(=O)c2ccc(O)c(O)c2)n2ccc(-c3ccn4c(C(=O)c5ccc(O)c(O)c5)cc(C(=O)OCC)c4c3)cc12

>  <discreteLabel>
no

$$$$
>  <compound>
COC(=O)[C@@H]1CCCN1C(=O)[C@@H]1CCCN1C(=O)[C@H](Cc1ccccc1)NC(=S)Nc1cc(C(F)(F)F)cc(C(F)(F)F)c1

>  <discreteLabel>
no

$$$$
>  <compound>
COCCNc1ccc2c3c(cccc13)C(=O)N(CCN(C)C)C2=O

>  <discreteLabel>
no

$$$$
>  <compound>
C=C1C(=O)O[C@H]2[C@H]1CC/C(COC(=O)NCc1ccc(OC)c(OC)c1)=C\CC[C@@]1(C)O[C@@H]21

>  <discreteLabel>
no

$$$$
>  <compound>
O=C1NC(=O)C(c2ccc(Cl)cc2Cl)N1 (centres undefined)

>  <discreteLabel>
no

$$$$
>  <compound>
CCCCCCN(CCCCCC)C(=N)c1ccnc2ccccc12

>  <discreteLabel>
no

$$$$
>  <compound>
N#C/C(=C\c1ccc(-c2cc(C(F)(F)F)ccc2Cl)o1)c1nc(-c2ccco2)cs1

>  <discreteLabel>
no

$$$$
>  <compound>
CC(=O)O[C@H]1[C@@H]2OC(=O)C(CSc3ccccc3)[C@@H]2C[C@H]2O[C@]2(C)CC/C=C(\C)CCC[C@@H]1C (some centres undefined)

>  <discreteLabel>
yes

$$$$
>  <compound>
Cn1cccc1-c1nc2c3c(ccc2[nH]1)C(=O)c1ccccc1C3=O

>  <discreteLabel>
no

$$$$
>  <compound>
O=C1c2cc3c(cc2-c2c1c1ccc(F)cc1c(=O)n2C[C@H](O)[C@@H](O)[C@H](O)CO)OCO3

>  <discreteLabel>
yes

$$$$
>  <compound>
CSc1nc(NCc2ccccc2)c(C#N)c(-c2cccc([N+](=O)[O-])c2)n1

>  <discreteLabel>
no

$$$$
>  <compound>
O=C1CC(=NCC(=O)n2c(-c3ccccc3)nc3ccccc32)NN1

>  <discreteLabel>
no

$$$$
>  <compound>
Clc1ccc2c(NCCCNc3nc(-n4ccnc4)nc4ccccc34)ccnc2c1

>  <discreteLabel>
no

$$$$
>  <compound>
CCCOc1ccc2nc(NC(=O)OC)[nH]c2c1

>  <discreteLabel>
yes

$$$$
>  <compound>
CCN=C1C=CC(=C(c2ccc(N)cc2)c2ccc(N(CC)CC)c(C)c2)C=C1

>  <discreteLabel>
yes

$$$$
>  <compound>
CSc1nc(NCCO)c(C#N)c(-c2cccc([N+](=O)[O-])c2)n1

>  <discreteLabel>
no

$$$$
>  <compound>
N#Cc1c(-c2ccc(Cl)cc2)nc(N/N=C/c2cccc(Br)c2)nc1N1CCOCC1

>  <discreteLabel>
no

$$$$
